Source: patent US8492371B2

molecular target: rat CB2 receptors (Rattus norvegicus, UniProt Q9QZN9); construct: expressed in transfected cells; host or cells: HEK293; assay: Rat CB2 radioligand binding assay ([3H]CP-55,940 competition)
Sequence (Q9QZN9 whole entry): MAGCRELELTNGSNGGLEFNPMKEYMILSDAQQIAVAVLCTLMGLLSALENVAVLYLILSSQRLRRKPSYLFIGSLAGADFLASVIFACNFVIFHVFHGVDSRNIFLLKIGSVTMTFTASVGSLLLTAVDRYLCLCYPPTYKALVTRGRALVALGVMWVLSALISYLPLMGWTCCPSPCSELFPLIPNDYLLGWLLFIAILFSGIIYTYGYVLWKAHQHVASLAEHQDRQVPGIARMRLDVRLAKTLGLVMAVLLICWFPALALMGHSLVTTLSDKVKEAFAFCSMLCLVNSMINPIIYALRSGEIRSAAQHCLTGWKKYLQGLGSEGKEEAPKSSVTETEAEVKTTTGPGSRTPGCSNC
pKi: −log10 of the molar value.
Given measured pKi, output True if it is greater than or equal to 8 and False if not.

COc1c(Cl)cc(C(F)(F)F)cc1C(=O)/N=c1\cc(C(C)(C)C)n(C)n1C[C@H]1CCCO1 [Example 53] ... True

Enquiry: For this molecule, is measured pKi 8 or higher? COCCCc1ccc(C(F)(F)F)cc1C(=O)/N=c1\cc(C(C)(C)C)n(C)n1C[C@H]1CCCO1 [Example 90]
Return: True

Enquiry: For this molecule, is measured pKi 8 or higher? Cc1ccc(C(F)(F)F)cc1C(=O)/N=c1\cc(C(C)(C)C)n(C)n1C[C@H]1CCCO1 [Example 86]
Return: True

Enquiry: For this molecule, is measured pKi 8 or higher? COc1ccc(Cl)cc1C(=O)/N=c1\sc(C(C)(C)C)nn1C[C@H]1COC(=O)N1 [Example 91]
Return: False

----------
molecular target: rat CB2 receptors (Rattus norvegicus, UniProt Q9QZN9); construct: expressed in transfected cells; host or cells: HEK293; assay: Rat CB2 radioligand binding assay ([3H]CP-55,940 competition)
Outcome Measure: pKi
In plain terms, pKi is the concentration in mol/L turned into minus its base-10 logarithm.

Sample records with pKi:
Cn1c(C(C)(C)C)c/c(=N\C(=O)c2cc(C(F)(F)F)ccc2OCCC2(O)CCCC2)n1C[C@H]1CCCO1 ... 8.48
COc1ccc(Cl)cc1C(=O)/N=c1\sc(C2(C(F)(F)F)CCC2)nn1C[C@H]1CCCO1 ... 9.10
Cn1c(C(C)(C)C)c/c(=N\C(=O)c2cc(C(F)(F)F)ccc2Br)n1C[C@H]1CCCO1 ... 8.27
CCOCCOc1ccc(C(F)(F)F)cc1C(=O)/N=c1\cc(C(C)(C)C)n(C)n1C[C@H]1CCCO1 ... 8.21
COc1ccc(C(F)(F)F)cc1C(=O)/N=c1\cc(C(C)(C)C)ccn1C[C@H]1CCCO1 ... 8.40

Enquiry: Annotate the compound CC(C)(C)c1nn(C[C@H]2CCCO2)/c(=N/C(=O)NC2CCCc3ccccc32)s1 (stereo partly shown) with its measured pKi.
Return: 8.09

Enquiry: Annotate the compound Cn1c(C(C)(C)C)c/c(=N\C(=O)c2cc(C(F)(F)F)ccc2OCC2CC(=O)C2)n1C[C@H]1CCCO1 with its measured pKi.
Return: 7.24

Enquiry: Annotate the compound Cn1c(C(C)(C)C)c/c(=N\C(=O)c2cc(O)cc(C(F)(F)F)c2)n1C[C@H]1CCCO1 with its measured pKi.
Return: 8.36

Enquiry: Annotate the compound Cn1c(C(C)(C)C)c/c(=N\C(=O)c2cc(C(F)(F)F)ccc2OCC2(O)CCC2)n1C[C@H]1CCCO1 with its measured pKi.
Return: 7.74

Enquiry: Annotate the compound CC(C)=CCOc1ccc(C(F)(F)F)cc1C(=O)/N=c1\cc(C(C)(C)C)n(C)n1C[C@H]1CCCO1 with its measured pKi.
Return: 7.82

Enquiry: Annotate the compound Cn1c(C(C)(C)C)c/c(=N\C(=O)c2cc(C(F)(F)F)ccc2OC[C@H]2C[C@@H](O)C2)n1C[C@H]1CCCO1 with its measured pKi.
Return: 7.08

Enquiry: Annotate the compound COCc1ccc(C(F)(F)F)cc1C(=O)/N=c1\cc(C(C)(C)C)n(C)n1C[C@H]1CCCO1 with its measured pKi.
Return: 8.52

Enquiry: Annotate the compound Cn1c(C(C)(C)C)c/c(=N\C(=O)c2cc([N+](=O)[O-])cc(C(F)(F)F)c2)n1C[C@H]1CCCO1 with its measured pKi.
Return: 7.20

Enquiry: Annotate the compound Cn1c(C(C)(C)C)c/c(=N\C(=O)c2cc(C(F)(F)F)ccc2OCC(F)(F)F)n1C[C@H]1CCCO1 with its measured pKi.
Return: 7.66

Enquiry: Annotate the compound COC(=O)C12CC3CC(CC(C(=O)/N=c4\cc(C(C)(C)C)n(C)n4C[C@H]4CCCO4)(C3)C1)C2 with its measured pKi.
Return: 7.85

Enquiry: Annotate the compound COc1ccc(C(F)(F)F)cc1C(=O)/N=c1\cc(C(C)(C)C)n(C)n1CC1CCOC1 (stereo not shown) with its measured pKi.
Return: 7.89

Enquiry: Annotate the compound Cn1c(C(C)(C)C)c/c(=N\C(=O)c2cccc(C#N)c2)n1C[C@H]1CCCO1 with its measured pKi.
Return: 7.77

Enquiry: Annotate the compound Cn1c(C(C)(C)C)c/c(=N\C(=O)c2cc(C#N)ccc2F)n1C[C@H]1CCCO1 with its measured pKi.
Return: 7.70

Enquiry: Annotate the compound Cn1c(C(C)(C)C)c/c(=N\C(=O)c2cc(C(F)(F)F)ccc2OCC(F)F)n1C[C@H]1CCCO1 with its measured pKi.
Return: 8.26

Enquiry: Annotate the compound Cn1c(C(C)(C)C)c/c(=N\C(=O)c2cccc(S(F)(F)(F)(F)F)c2)n1C[C@H]1CCCO1 with its measured pKi.
Return: 8.92

Enquiry: Annotate the compound COc1ccc(C(F)(F)F)cc1C(=O)/N=c1\cc(C(C)(C)C)n(C)n1CC1CCCCO1 (stereo not shown) with its measured pKi.
Return: 7.70

Enquiry: Annotate the compound C[C@@H](F)COc1ccc(C(F)(F)F)cc1C(=O)/N=c1\cc(C(C)(C)C)n(C)n1C[C@H]1CCCO1 with its measured pKi.
Return: 7.74
